- SYSTEM_TESTED: UniProt Q14164
- Sequence (Q14164 whole entry): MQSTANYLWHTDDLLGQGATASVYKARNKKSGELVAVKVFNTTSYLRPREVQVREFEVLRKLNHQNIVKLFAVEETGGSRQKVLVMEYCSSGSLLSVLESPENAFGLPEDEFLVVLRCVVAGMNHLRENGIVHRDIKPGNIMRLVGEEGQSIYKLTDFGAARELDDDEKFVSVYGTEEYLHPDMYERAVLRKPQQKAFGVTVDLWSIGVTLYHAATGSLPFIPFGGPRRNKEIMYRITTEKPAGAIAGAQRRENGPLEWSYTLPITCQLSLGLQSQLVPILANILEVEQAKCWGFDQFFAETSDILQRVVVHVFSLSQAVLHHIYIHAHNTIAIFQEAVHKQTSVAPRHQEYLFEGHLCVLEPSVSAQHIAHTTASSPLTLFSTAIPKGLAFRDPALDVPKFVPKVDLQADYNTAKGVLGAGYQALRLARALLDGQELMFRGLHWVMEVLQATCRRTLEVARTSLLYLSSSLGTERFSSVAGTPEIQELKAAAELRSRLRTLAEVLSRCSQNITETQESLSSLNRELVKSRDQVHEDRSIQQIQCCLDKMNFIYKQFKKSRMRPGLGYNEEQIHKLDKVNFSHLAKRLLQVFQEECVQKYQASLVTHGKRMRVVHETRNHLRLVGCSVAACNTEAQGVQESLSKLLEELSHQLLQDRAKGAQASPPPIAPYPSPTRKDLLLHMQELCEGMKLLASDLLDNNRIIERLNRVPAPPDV
- PROTOCOL_DESCRIPTION: pIC50, kinobeads binding competition
- CONDITION_PARAMETERS: cell material: Lysate mix
Collected pIC50 values appear next to each entry.
Returns: the value as a bare number; no unit string appended.

{"INPUT_SMILES": "CCNC(=O)c1cc(Nc2cc(C3CC3)[nH]n2)nc(N2CCN(Cc3ccc(S(=O)(=O)F)cc3)CC2)n1", "SYSTEM_TESTED": "UniProt Q14164", "pIC50": 5.08}

Turning now to a further molecule:
Return reported pIC50; argument: `C#CCNC(=O)c1cc(Nc2cc(C3CC3)[nH]n2)nc(N2CCN(Cc3ccc(S(=O)(=O)F)cc3)CC2)n1` 5.25

----------
- SYSTEM_TESTED: UniProt O60285
- Sequence (O60285 whole entry): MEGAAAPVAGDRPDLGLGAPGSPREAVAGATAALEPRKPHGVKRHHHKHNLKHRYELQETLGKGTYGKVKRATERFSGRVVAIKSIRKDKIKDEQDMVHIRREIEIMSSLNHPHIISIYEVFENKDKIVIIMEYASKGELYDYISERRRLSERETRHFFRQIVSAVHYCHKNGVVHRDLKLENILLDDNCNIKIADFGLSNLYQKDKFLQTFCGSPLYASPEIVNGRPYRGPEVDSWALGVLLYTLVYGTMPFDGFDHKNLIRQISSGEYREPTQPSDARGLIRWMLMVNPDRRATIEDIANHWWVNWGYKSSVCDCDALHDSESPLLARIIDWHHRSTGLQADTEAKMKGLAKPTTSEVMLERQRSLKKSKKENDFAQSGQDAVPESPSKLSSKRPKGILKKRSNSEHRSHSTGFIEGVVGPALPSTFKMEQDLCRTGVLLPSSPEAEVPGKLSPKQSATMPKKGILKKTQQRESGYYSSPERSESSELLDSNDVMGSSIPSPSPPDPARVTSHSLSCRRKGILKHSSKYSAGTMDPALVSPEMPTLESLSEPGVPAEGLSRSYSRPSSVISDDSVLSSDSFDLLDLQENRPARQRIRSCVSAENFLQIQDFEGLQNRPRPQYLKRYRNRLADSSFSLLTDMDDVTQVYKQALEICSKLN
- PROTOCOL_DESCRIPTION: pIC50, kinobeads binding competition
- CONDITION_PARAMETERS: cell material: Lysate mix
EXPERIMENTAL_ENDPOINT: pIC50

Here is how some compounds turned out for pIC50.
{"COMPOUND": "CCNC(=O)c1cc(Nc2cc(C3CC3)[nH]n2)nc(N2CCN(Cc3ccc(S(=O)(=O)F)cc3)CC2)n1", "RESULT": 4.98}
{"COMPOUND": "C#CCNC(=O)c1cc(Nc2cc(C)[nH]n2)nc(N2CCN(Cc3ccc(S(=O)(=O)F)cc3)CC2)n1", "RESULT": "< 4.52"}
{"COMPOUND": "C#CCNC(=O)c1cc(Nc2cc(C3CC3)[nH]n2)nc(N2CCN(Cc3ccc(S(=O)(=O)F)cc3)CC2)n1", "RESULT": 4.83}

Query pIC50 on UniProt O60285 for `CCNC(=O)c1cc(Nc2cc(C)[nH]n2)nc(N2CCN(Cc3ccc(S(=O)(=O)F)cc3)CC2)n1` < 4.52

Try O=C(NCCNC(=O)c1cc(Nc2cc(C3CC3)[nH]n2)nc(N2CCN(Cc3ccc(S(=O)(=O)F)cc3)CC2)n1)OC1CC/C=C/CCC1 (stereo unspecified) next. < 4.52

Try Cc1cc(Nc2cc(C(=O)NCCNC(=O)OC3CC/C=C/CCC3)nc(N3CCN(Cc4ccc(S(=O)(=O)F)cc4)CC3)n2)n[nH]1 (stereo unspecified) next. < 4.52

----------
- SYSTEM_TESTED: UniProt Q04912
- Sequence (Q04912 whole entry): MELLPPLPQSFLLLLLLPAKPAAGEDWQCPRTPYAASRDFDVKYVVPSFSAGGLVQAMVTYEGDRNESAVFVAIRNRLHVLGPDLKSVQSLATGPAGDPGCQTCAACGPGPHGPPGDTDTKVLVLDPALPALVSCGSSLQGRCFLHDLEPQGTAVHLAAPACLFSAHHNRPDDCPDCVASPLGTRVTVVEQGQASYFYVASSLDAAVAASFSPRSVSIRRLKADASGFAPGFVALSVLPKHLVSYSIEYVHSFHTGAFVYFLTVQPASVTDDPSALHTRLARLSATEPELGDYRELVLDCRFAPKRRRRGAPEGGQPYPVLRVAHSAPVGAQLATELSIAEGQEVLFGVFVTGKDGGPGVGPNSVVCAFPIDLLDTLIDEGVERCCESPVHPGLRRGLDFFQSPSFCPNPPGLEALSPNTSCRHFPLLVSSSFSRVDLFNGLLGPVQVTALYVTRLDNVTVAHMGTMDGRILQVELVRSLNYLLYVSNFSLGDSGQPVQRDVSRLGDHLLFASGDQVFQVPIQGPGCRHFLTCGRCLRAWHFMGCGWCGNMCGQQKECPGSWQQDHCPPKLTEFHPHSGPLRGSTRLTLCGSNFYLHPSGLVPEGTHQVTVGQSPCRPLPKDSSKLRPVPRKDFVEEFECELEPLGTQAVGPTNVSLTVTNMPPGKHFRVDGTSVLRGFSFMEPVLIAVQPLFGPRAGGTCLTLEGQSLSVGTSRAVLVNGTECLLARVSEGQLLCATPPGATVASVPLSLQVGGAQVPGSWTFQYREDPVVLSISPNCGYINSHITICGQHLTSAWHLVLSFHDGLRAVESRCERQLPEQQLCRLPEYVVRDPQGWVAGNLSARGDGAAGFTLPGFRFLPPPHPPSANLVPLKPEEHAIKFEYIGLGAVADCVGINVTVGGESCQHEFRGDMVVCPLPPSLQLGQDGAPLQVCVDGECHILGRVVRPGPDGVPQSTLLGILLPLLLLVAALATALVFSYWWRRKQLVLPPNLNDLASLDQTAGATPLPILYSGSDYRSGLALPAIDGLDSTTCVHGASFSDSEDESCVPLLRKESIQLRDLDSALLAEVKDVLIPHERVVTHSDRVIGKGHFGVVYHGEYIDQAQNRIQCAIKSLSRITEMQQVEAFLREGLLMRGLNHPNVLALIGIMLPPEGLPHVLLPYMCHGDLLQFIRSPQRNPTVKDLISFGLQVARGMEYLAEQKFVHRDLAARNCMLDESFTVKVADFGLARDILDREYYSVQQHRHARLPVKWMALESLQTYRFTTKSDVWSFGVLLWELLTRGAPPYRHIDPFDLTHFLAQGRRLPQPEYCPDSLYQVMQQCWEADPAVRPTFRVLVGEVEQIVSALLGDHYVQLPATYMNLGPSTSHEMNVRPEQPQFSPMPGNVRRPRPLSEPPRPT
- PROTOCOL_DESCRIPTION: pIC50, kinobeads binding competition
- CONDITION_PARAMETERS: cell material: Lysate mix
Collected pIC50 values appear next to each entry.

Return reported pIC50; argument: O=C(NCCNC(=O)c1cc(Nc2cc(C3CC3)[nH]n2)nc(N2CCN(Cc3ccc(S(=O)(=O)F)cc3)CC2)n1)OC1CC/C=C/CCC1 (stereo not given) < 4.52

Try `CCNC(=O)c1cc(Nc2cc(C)[nH]n2)nc(N2CCN(Cc3ccc(S(=O)(=O)F)cc3)CC2)n1` next. 4.54

Try Cc1cc(Nc2cc(C(=O)NCCNC(=O)OC3CC/C=C/CCC3)nc(N3CCN(Cc4ccc(S(=O)(=O)F)cc4)CC3)n2)n[nH]1 (stereo not given) next. < 4.52

Try `CCNC(=O)c1cc(Nc2cc(C3CC3)[nH]n2)nc(N2CCN(Cc3ccc(S(=O)(=O)F)cc3)CC2)n1` next. < 4.52

Try `C#CCNC(=O)c1cc(Nc2cc(C)[nH]n2)nc(N2CCN(Cc3ccc(S(=O)(=O)F)cc3)CC2)n1` next. < 4.52
